# Test system: 786-O
# experiment.notes: Euclidean distance of Cell Painting phenotypic profile (signed KS, 77 features) to DMSO centroid (dimensionless distance); 5 or 10 uM (library dependent); higher = stronger phenotypic change vs DMSO (phenoactivity)
# protocol.conditions: 48 h
Structures can show the parent of a compound that is named as a salt.
Please respond with reported Euclidean distance for every item in the list.
Enter the number alone.

# query: Euclidean distance | item N[C@@H]1CONC1=O | system: 786-O
1.67

Try this compound too: O=C(O)CCC(=O)Nc1ccc(S(=O)(=O)Nc2nccs2)cc1
0.988

Try this compound too: CC(C)C[C@H](NC(=O)[C@H]1O[C@@H]1C(=O)O)C(=O)NCCCCN=C(N)N
1.31

Try this compound too: CC[C@]1(O)C[C@@H]2CN(CCc3c([nH]c4ccccc34)[C@@](C(=O)OC)(c3cc4c(cc3OC)N(C)[C@H]3[C@@](O)(C(=O)OC)[C@H](OC(C)=O)[C@]5(CC)C=CCN6CC[C@]43[C@@H]65)C2)C1 [Vinblastine sulfate]
3.25

* * *

# Tested on: FB
# experiment.notes: Euclidean distance of Cell Painting phenotypic profile (signed KS, 77 features) to DMSO centroid (dimensionless distance); 5 or 10 uM (library dependent); higher = stronger phenotypic change vs DMSO (phenoactivity)
# protocol.conditions: 48 h
Where a name gives a salt, the structure may show the parent alone.
quantity.name: Euclidean distance
Enter the number alone.

Query: Euclidean distance; subject: COc1ccc(CC(C)NCC(O)c2ccc(O)c(NC=O)c2)cc1 (centres undefined) [Formoterol Hemifumarate]
0.886

Try this compound too: N[C@@H](CCC(=O)O)C(=O)O [(S)-Glutamic acid]
0.799

Try this compound too: O=C(O)COc1nn(Cc2ccccc2)c2ccccc12 [Bendazac]
1.39

Try this compound too: Cn1c(=O)c(F)c(Nc2ccc(I)cc2F)c2c(=O)n(C[C@@H](O)CO)cnc21
4.03

Try this compound too: C#C[C@]1(O)CC[C@H]2[C@@H]3CCC4=Cc5oncc5C[C@]4(C)[C@H]3CC[C@@]21C [Danazol]
0.594

Try this compound too: CN1C(=O)[C@@H](NC(=O)c2n[nH]c(Cc3ccccc3)n2)COc2ccccc21
1.02

Try this compound too: Cc1[nH]c(/C=C2\C(=O)Nc3ccccc32)c(C)c1CCC(=O)O [TSU-68 (SU6668. Orantinib)]
0.825

Try this compound too: N=C(NOCC(O)CN1CCCCC1)c1cccnc1 (centres undefined)
1.33

Try this compound too: CC(C)N(CCC(=O)c1ccc2ccccc2c1)Cc1ccccc1
1.33

Try this compound too: CC1(C)C[C@@H]1C(=O)N/C(=C\CCCCSC[C@H](N)C(=O)O)C(=O)O [Cilastatin]
1.49

Try this compound too: CN(C)C1CCN(C(=O)c2ccc(NC(=O)Nc3ccc(-c4nc(N5CCOCC5)nc(N5CCOCC5)n4)cc3)cc2)CC1
4.95

Try this compound too: Clc1ccc(CCCOCCCN2CCCCC2)cc1 [Pitolisant hydrochloride]
0.98

Try this compound too: O=C(O)Cc1cc(I)c(Oc2ccc(O)c(I)c2)c(I)c1 [Tiratricol]
0.597

Try this compound too: COc1ccccc1N1CCN(CC(O)COc2cccc3ccccc23)CC1 (centres undefined) [Naftopidil]
1.01

Try this compound too: Nc1ncnc2c1c(-c1cccc(OCc3ccccc3)c1)cn2C1CC(CN2CCCC2)C1 (centres undefined)
3.95

Try this compound too: CC1CCc2c(N3CCC(O)CC3)c(F)cc3c(=O)c(C(=O)O)cn1c23 (centres undefined) [Nadifloxacin]
1.14

Try this compound too: CCCCC1C(=O)N(c2ccccc2)N(c2ccccc2)C1=O [Phenylbutazone]
1.25

Try this compound too: O=c1[nH]c(=O)n([C@H]2C[C@H](O)[C@@H](CO)O2)cc1/C=C/Br [Brivudine]
1.07

Try this compound too: COc1cccc(CCc2ccccc2OCC(CN(C)C)OC(=O)CCC(=O)O)c1 (centres undefined) [Sarpogrelate hydrochloride]
1.27
